# Tested on: RBM45 domain 2-3, Q8IUH3-3
# Sequence: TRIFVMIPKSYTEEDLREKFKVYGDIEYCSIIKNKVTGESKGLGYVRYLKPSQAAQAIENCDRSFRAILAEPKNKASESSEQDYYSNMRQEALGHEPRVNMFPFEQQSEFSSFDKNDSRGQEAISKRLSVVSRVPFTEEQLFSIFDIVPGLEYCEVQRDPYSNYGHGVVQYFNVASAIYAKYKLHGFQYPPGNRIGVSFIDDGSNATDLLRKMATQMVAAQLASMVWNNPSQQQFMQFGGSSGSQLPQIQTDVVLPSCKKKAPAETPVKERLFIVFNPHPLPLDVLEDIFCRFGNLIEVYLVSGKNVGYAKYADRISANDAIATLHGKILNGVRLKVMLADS
# measurement description: BLI
# applied conditions: BLI: 20 mM Tris-HCl pH 7.4, 80 mM NaCl, temperature not stated; pull-down: 20 mM Tris-HCl pH 7.5, 300 mM KCl, 0.2 mM EDTA, 0.5 mM DTT, 5 ug/ml poly(I.C) …
measurement label: Kd (nM)
Give a bare numeral; the unit nM is implied.

So, GUAAAGCUACGGGACGGU [ISE3] ? Its Kd was 21.8
